Measured pIC50 of individual entries
MEASUREMENT_TARGET: UniProt Q9NZQ7
Sequence (Q9NZQ7 19-239): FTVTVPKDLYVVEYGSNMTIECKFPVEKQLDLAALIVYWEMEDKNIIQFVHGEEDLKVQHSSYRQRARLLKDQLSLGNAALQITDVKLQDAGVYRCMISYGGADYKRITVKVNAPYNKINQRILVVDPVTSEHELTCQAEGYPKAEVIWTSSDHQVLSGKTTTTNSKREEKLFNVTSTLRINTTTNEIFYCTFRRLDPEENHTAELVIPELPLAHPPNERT
TEST: Enzyme-Linked Immunosorbent Assay (ELISA), PD-1/PD-L1 binding
CONDITION_INFO: human PD-1/PD-L1 ELISA, plates coated with human PD-L1
pIC50: −log10 of the molar value.

[[record]]
compound = "COc1cc(-c2cccc(-c3cccc(NC(=O)c4cccn(C)c4=O)c3C)c2C)cc(F)c1CNC1COC1 [Example 1.169]"
val = "6.00 to 8.00"

[[record]]
compound = "COc1cc(-c2cccc(-c3cccc(NC(=O)c4nn(C)c(=O)n(C)c4=O)c3C)c2C)cc(F)c1CN[C@@H]1CCC(=O)NC1=O [Example 1.058]"
val = "6.00 to 8.00"

[[record]]
compound = "COc1cc(-c2cccc(-c3cccc(NC(=O)c4cccn(C)c4=O)c3C)c2C)cc(F)c1CNC1CCOC1 (stereo not drawn) [Example 1.168]"
val = "> 8.00"


Q: Need pIC50 of COc1cc(-c2cccc(-c3cccc(NC(=O)c4nn(C)c(=O)n(C)c4=O)c3C)c2C)cc(F)c1CN[C@@H]1CCCNC1=O [Example 1.059] , thanks.
Ans: 6.00 to 8.00

Q: Need pIC50 of COc1cc(-c2cccc(-c3cccc(NC(=O)c4cccn(C)c4=O)c3C)c2C)cc(F)c1CN(C)[C@@H]1CNC(=O)C1 [Example 1.074] , thanks.
Ans: 6.00 to 8.00

Q: Need pIC50 of COc1cc(-c2cccc(-c3cccc(NC(=O)c4cncn(C)c4=O)c3C)c2C)cc(F)c1CNC1CCOCC1 [Example 1.087] , thanks.
Ans: > 8.00

Q: Need pIC50 of COc1cc(-c2cccc(-c3cccc(Nc4nccc5c4C(=O)N(C)CC5)c3C)c2C)cc(F)c1CN[C@@H]1CNC(=O)C1 [Example 1.196] , thanks.
Ans: 6.00 to 8.00

Q: Need pIC50 of COc1cc(-c2cccc(-c3cccc(NC(=O)c4nn(C)c(=O)n(C)c4=O)c3C)c2C)cc(F)c1CN(C)C[C@@H]1CCC(=O)N1 [Example 1.077] , thanks.
Ans: > 8.00

Q: Need pIC50 of COc1cc(-c2cccc(-c3cccc(NC(=O)c4cn(C)c(=O)n(C)c4=O)c3C)c2C)cc(F)c1CN[C@H]1CCC[C@H]1O [Example 1.147] , thanks.
Ans: > 8.00

Each recorded value in this set is attributed to patent US11266643B2.
